Parameter IC50, tested on Gonadotropin-releasing hormone receptor (Rattus norvegicus, UniProt P30969), listed per item.
Sequence (P30969 whole entry): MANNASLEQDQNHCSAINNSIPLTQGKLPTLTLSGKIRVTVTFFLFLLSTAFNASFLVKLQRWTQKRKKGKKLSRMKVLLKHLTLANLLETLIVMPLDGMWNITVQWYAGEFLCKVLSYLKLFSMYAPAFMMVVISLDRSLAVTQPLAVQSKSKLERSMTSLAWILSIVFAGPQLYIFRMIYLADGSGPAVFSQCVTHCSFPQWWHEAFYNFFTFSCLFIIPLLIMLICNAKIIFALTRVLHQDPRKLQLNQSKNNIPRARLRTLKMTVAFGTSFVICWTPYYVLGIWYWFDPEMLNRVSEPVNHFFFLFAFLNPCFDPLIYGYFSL
Provide the reading as a plain figure in µM.

Query: Entry COc1ccc(-c2[nH]c3ccccc3c2CCNCc2ccc(O)cc2)cc1OC has what IC50?
Reply: 20

Query: # repeat for Cc1cc(C)cc(-c2[nH]c3ccccc3c2CCNCCCCCc2ccc(O)cc2)c1
Reply: 0.2

Query: And what about the molecule Cc1ccc(-c2[nH]c3ccccc3c2CCNCCCCc2ccc(O)cc2)cc1 ?
Reply: 9

Query: Also COc1ccc(-c2[nH]c3ccccc3c2CCNCCCCCc2ccc(O)cc2)cc1OC , if possible.
Reply: 2

Query: Same read-out for Oc1ccc(CCCCNCCc2c(-c3ccccc3)[nH]c3ccccc23)cc1 ?
Reply: 1.3

Query: Another: Cc1ccccc1-c1[nH]c2ccccc2c1CCNCCCCc1ccc(O)cc1
Reply: 0.5

Query: Now this one: CCc1cccc(-c2[nH]c3ccccc3c2CCNCCCCc2ccc(O)cc2)c1
Reply: 0.9

Query: What do we get for Oc1ccc(CCCCNCCc2c(-c3csc4ccccc34)[nH]c3ccccc23)cc1 ?
Reply: 0.3

Query: Quick one: COc1ccc(-c2[nH]c3ccccc3c2CCNC[C@H](O)CCc2ccc(O)cc2)cc1OC
Reply: 2

Query: Request: COc1cc(OC)cc(-c2[nH]c3ccccc3c2CCNCCCCc2ccc(O)cc2)c1
Reply: 0.7

Query: Next entry: Cc1cc(C)cc(-c2[nH]c3ccccc3c2CCNCCc2ccc(O)cc2)c1
Reply: 0.2

Query: What do you get for Cc1cc(C)cc(-c2[nH]c3ccccc3c2CCNCCCCCCc2ccc(O)cc2)c1 ?
Reply: 0.6

Query: Again, but for COc1ccc(-c2[nH]c3ccccc3c2CCNCCCCCCc2ccc(O)cc2)cc1OC
Reply: 10

Query: Another: Oc1ccc(CCCCNCCc2c(-c3cccc4ccccc34)[nH]c3ccccc23)cc1
Reply: 0.13

Query: Now try Oc1ccc(CCCCNCCc2c(-c3cc(C(F)(F)F)cc(C(F)(F)F)c3)[nH]c3ccccc23)cc1 .
Reply: 1.5

Query: Would you mind doing COc1ccc(-c2[nH]c3ccccc3c2CCNC(=O)CCCc2ccc(N)cc2)cc1OC as well?
Reply: 30

Query: Same question for COc1ccc(-c2[nH]c3ccccc3c2CCNCCCc2ccc(O)cc2)cc1OC please.
Reply: 6

Query: And the next one, COc1ccc(-c2[nH]c3ccccc3c2CCNCCCCc2ccc(OCc3ccccc3)cc2)cc1OC ?
Reply: 30

Query: Lookup Cc1cc(C)cc(-c2[nH]c3ccccc3c2CCNCCCc2ccc(O)cc2)c1
Reply: 0.25

Query: Now give it for Oc1ccc(CCCCNCCc2c(-c3ccc4ccccc4c3)[nH]c3ccccc23)cc1 too.
Reply: 2.5
